Listed here: items and their measured apparent Kd.
Tested on: MS2 coat protein
Assay: apparent Kd, MS2 coat protein; higher = weaker binding; RNA-MaP array
Details: ligand present: flavin mononucleotide; designed as: ON switch for flavin mononucleotide

- Polymer Sequence: "GCGCGGCGUGAAGGAUAUGGUUCAGUACAUGAGGAUCACCCAUGUCAGACAGCAUCGGGGCCGUCCCAGAAGGUCACACGUUUU"
  apparent Kd (nM): 7.36
- Polymer Sequence: "GUUAAAGAACGAGGAUAUAUUUGGUGAGGAGUACACAUGAGGAUCACCCAUGUCCAUCCUAUUCCAUAGAAGGCGUAGAGUUUU"
  apparent Kd (nM): 6.95
- Polymer Sequence: "CGUGCAUGCUAGUAGGAUAUCCCGCAUGAAACAUGAGGAUCACCCAUGUAGAAGAUCUAUGAUCGGGAGAAGGACUCGUGAGAAAC"
  apparent Kd (nM): 12.1
- Polymer Sequence: "GACCGUGUCAAUCAUCAUCAACAUGAGGAUCACCCAUGUACCAAGGAUAUCUCGCACUACAAGUCAGAGAAGGUGGGUUUACUC"
  apparent Kd (nM): 152
- Polymer Sequence: "AUGGUCUCUUAAGGAUAUAGCUAUACAGAGCGCACGUAGGUUAAAUACAUGAGGAUCACCCAUGUCUAGAAGGUAAGUACCGGA"
  apparent Kd (nM): 11.1
